- target_of_assay: chimeric human RORγ-Gal4 receptor (Homo sapiens)
- Sequence (P51449 269-508 limits assumed): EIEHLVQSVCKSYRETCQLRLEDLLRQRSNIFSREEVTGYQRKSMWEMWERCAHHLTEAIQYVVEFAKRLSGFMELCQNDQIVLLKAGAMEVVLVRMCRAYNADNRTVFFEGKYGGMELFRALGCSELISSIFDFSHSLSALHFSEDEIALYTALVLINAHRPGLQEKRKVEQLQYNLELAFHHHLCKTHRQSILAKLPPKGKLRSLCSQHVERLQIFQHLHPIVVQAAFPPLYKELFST
- protocol_summary: transient transactivation assay (RORγ-Gal4 luciferase reporter)
- Assay type: cell-based
- condition_context: Cos-7 cells transfected with RORγ-Gal4 and 5Gal4 pGL3 TK Luc reporter; overnight incubation; T0901317 at 10^-5 M as reference; read-out: IC50
readout_type: IC50

Answered cases to consult:
| molecule | readout_type | endpoint_result |
| --- | --- | --- |
| Cc1cn(Cc2c(Cl)ccc(C(=O)N3CCOCC3)c2Cl)c2c(C)nc(C(F)(F)F)cc12 [ET] | IC50 | < 100 nM |
| Cc1cc(C#N)cc2c1nc(Cc1c(Cl)ccc(C(=O)N3CCC(CC(C)(C)O)CC3)c1Cl)n2C [BN-16] | IC50 | 500 to 1000 nM |
| Cc1cc(C#N)cc2c1cc(Cc1c(Cl)ccc(O[C@H]3C[C@H](C(=O)O)C3)c1Cl)n2C [Example AH] | IC50 | 500 to 1000 nM |

List IC50 for every entry below, keeping the order given.
1. Cc1cc(C#N)cc2c1nc(Cc1c(Cl)ccc(C(=O)N3CCC4(CCOC4)CC3)c1Cl)n2C [BN-8]
2. Cc1cn(Cc2c(Cl)ccc(C(=O)N3CCC(O)CC3)c2Cl)c2c(C)cc(C#N)cc12 [DK]
3. CCOC(=O)CN1CCN(C(=O)c2ccc(Cl)c(Cc3cc4c(C)cc(C(F)(F)F)cc4n3C)c2Cl)CC1 [Example AV]
4. Cc1cc(C#N)cc2c1cc(Cc1c(Cl)ccc(C(=O)N3CC(N4CCCC4)C3)c1Cl)n2C [AA-16]
5. COC1CN(C(=O)c2ccc(Cl)c(Cc3cc4c(C)cc(C#N)cc4n3C)c2Cl)C1 [AA-21]

Ans.
1: 100 to 500 nM; 2: 100 to 500 nM; 3: 100 to 500 nM; 4: 100 to 500 nM; 5: 100 to 500 nM

* * *

So I've got a bunch of molecules here, and I need their pIC50 values.
- target_of_assay: chimeric human RORγ-Gal4 receptor (Homo sapiens)
- protocol_summary: transient transactivation assay (RORγ-Gal4 luciferase reporter)
- Format: cell-based
- condition_context: Cos-7 cells transfected with RORγ-Gal4 and 5Gal4 pGL3 TK Luc reporter; overnight incubation; T0901317 at 10^-5 M as reference; read-out: IC50
pIC50: −log10 of the molar value.

Previously resolved entries follow.
| molecule | target_of_assay | endpoint_result |
| --- | --- | --- |
| Cc1cc(C#N)nn2c(C)c(Cc3c(Cl)ccc(C(=O)N4CCOCC4)c3Cl)nc12 [DA] | chimeric human RORγ-Gal4 receptor (Homo sapiens) | 5.00 to 6.00 |
| Cc1cc(C(F)(F)F)cc2c1nc(Cc1c(Cl)ccc(CN3CCC(CC(C)(C)O)CC3)c1Cl)n2C [BW-12] | chimeric human RORγ-Gal4 receptor (Homo sapiens) | 6.00 to 6.30 |
| CC(C)c1ccc2c(ccn2Cc2c(Cl)ccc(C(=O)N3CCC(CC(=O)O)CC3)c2Cl)c1 [EI-1] | chimeric human RORγ-Gal4 receptor (Homo sapiens) | > 7.00 |

Qu. Notebook entry, chimeric human RORγ-Gal4 receptor (Homo sapiens) assay: pIC50 of Cc1cc(C(F)(F)F)cc2c1cc(Cc1c(Cl)ccc(C(=O)N3CCCC(C(=O)O)C3)c1Cl)n2C (stereo not shown) [Example B-11] = ?
Ans. 6.30 to 7.00
